The reported measurements were obtained from PubChem BioAssay (NCI).

tested on: IGROV1 ovarian; test: NCI-60 one-dose screen, 48 h (100 = growth as untreated, 0 = no growth, -100 = all killed); details: 10 µM unless noted
This is part of a sample that, as a whole, favours compounds with a hit. Of some 83,000 tested, about 20% had one in any assay. Active and inactive are the calls of the source. Rule for the calls: active = growth percent below 10; inactive = the rest.
quantity: growth

Identify the reported growth for the following entry. CCCCN(CCCC)CCc1c(C)cc(C)c(CCN(CCCC)CCCC)c1O
32.9% (inactive)

Identify the reported growth for the following entry. COc1cc2nc(-c3ccc(-c4nn[nH]n4)cc3)[nH]c(=O)c2cc1OC
108% (inactive)

Identify the reported growth for the following entry. C=C(C)[C@@H]1CC[C@]2(C(=O)N3CCN(C)CC3)CC[C@]3(C)[C@H](CC[C@@H]4[C@@]5(C)CCC(=O)C(C)(C)[C@@H]5CC[C@]43C)[C@@H]12
89.2% (inactive)

Identify the reported growth for the following entry. COc1ccc(CNC(=O)COc2ccc(/C=N/Nc3nc4ccccc4s3)cc2)cc1
28.8% (inactive)
